biological target: UniProtKB P53341; assay: α-glucosidase inhibition (pNPG, spectrophotometric); type: biochemical; conditions: pNPG substrate, pH 6.8, 37 °C; read-out: IC50 [mM] inhibition of α-glucosidase by compounds isolated from fruit of Cornus alba
Sequence (P53341 whole entry): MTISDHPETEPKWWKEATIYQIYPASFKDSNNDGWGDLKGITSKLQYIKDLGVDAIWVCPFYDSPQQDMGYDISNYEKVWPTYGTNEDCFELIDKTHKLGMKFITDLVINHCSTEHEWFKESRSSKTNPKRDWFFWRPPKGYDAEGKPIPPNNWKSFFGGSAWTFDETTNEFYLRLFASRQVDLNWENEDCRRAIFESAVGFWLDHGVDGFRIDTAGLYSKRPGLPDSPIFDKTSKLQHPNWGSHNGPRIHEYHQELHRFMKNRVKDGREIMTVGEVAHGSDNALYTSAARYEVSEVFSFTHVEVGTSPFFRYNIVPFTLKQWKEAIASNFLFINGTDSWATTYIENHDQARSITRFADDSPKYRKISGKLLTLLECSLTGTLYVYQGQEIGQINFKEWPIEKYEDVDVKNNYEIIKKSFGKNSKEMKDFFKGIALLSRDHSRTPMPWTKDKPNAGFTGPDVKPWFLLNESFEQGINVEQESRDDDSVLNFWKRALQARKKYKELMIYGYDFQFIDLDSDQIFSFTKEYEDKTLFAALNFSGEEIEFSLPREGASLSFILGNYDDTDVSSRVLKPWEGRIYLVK
METRIC: IC50 (mM)
Note: unit mM is implicit; provide only the numeric part.

Exercise: Which measured IC50 value corresponds to "COC(=O)[C@H]1O[C@@H](Oc2c(-c3ccc(O)cc3)oc3cc(O)cc(O)c3c2=O)[C@H](O)[C@@H](O)[C@@H]1O" ?
Key: 0.21

Exercise: Which measured IC50 value corresponds to OC[C@H]1O[C@@H](OCCc2ccc(O)c(O)c2)[C@H](O)[C@@H](O)[C@@H]1O [compound 5, hydroxytyrosol glucoside] ?
Key: 1.46

Exercise: Which measured IC50 value corresponds to COC(=O)C1(O)CC(O)C(O)C(OC(=O)/C=C/c2ccc(O)cc2)C1 (stereo not shown) ?
Key: 0.16

Exercise: Which measured IC50 value corresponds to O=C(C=Cc1ccc(O)cc1)OC1CC(O)(C(=O)O)CC(O)C1O (stereo not shown) ?
Key: 0.84
